Reference source for all entries: paper PMC4176650

The entries below come with measured Kmapp values attached.
target: Jack bean urease (Canavalia ensiformis); assay: biochemical; conditions: Urease (JB); Km without inhibitor 2.5 mM
Sequence (P07374 whole entry, looked up): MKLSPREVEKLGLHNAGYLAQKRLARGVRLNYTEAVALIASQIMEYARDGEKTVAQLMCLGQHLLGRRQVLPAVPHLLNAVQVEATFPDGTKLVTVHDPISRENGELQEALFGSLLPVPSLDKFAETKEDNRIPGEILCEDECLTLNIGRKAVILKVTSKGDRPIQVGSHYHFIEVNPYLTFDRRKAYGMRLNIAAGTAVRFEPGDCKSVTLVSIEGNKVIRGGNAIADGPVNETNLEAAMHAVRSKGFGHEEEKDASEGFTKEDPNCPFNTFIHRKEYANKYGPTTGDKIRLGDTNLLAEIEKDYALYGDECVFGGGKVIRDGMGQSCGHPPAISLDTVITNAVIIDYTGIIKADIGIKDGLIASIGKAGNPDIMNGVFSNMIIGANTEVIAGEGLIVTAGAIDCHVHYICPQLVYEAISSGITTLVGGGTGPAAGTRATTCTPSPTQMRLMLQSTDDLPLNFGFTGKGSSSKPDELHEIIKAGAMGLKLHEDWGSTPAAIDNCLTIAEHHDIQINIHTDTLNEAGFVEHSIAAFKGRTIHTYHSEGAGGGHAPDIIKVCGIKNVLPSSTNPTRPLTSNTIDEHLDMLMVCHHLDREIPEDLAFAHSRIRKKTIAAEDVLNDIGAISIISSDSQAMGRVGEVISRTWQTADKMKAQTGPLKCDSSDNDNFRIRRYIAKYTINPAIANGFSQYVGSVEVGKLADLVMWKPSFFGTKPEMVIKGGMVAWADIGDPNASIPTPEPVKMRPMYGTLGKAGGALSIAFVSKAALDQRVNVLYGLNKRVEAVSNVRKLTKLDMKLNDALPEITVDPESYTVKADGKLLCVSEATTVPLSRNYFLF
Write the number in mM without appending the unit.

Sample answers from the record:
Prompt: Look up Kmapp: C/C=C/C(c1c(O)c2ccccc2oc1=O)c1c(O)c2ccccc2oc1=O
Response: 9.1

Prompt: Look up Kmapp: O=c1oc2ccccc2c(O)c1C(c1cc[nH]c1)c1c(O)c2ccccc2oc1=O
Response: 7.8

Prompt: Look up Kmapp: O=c1oc2ccccc2c(O)c1C(c1ccncc1)c1c(O)c2ccccc2oc1=O
Response: 7.7

Prompt: Look up Kmapp: CC(c1c(O)c2ccccc2oc1=O)c1c(O)c2ccccc2oc1=O
Response: 8.3

Further cases:
Prompt: Look up Kmapp: CCCCC(c1c(O)c2ccccc2oc1=O)c1c(O)c2ccccc2oc1=O
Response: 9.5

Prompt: Look up Kmapp: O=c1oc2ccccc2c(O)c1C(c1cccnc1)c1c(O)c2ccccc2oc1=O
Response: 10.6

Prompt: Look up Kmapp: O=c1oc2ccccc2c(O)c1C(c1c(O)c2ccccc2oc1=O)c1c[nH]c2ccccc12
Response: 11.6

Prompt: Look up Kmapp: O=c1oc2ccccc2c(O)c1C(/C=C/c1ccccc1)c1c(O)c2ccccc2oc1=O
Response: 7.5

Prompt: Look up Kmapp: O=c1oc2ccccc2c(O)c1Cc1c(O)c2ccccc2oc1=O
Response: 7.6

Prompt: Look up Kmapp: COc1cccc(C(c2c(O)c3ccccc3oc2=O)c2c(O)c3ccccc3oc2=O)c1
Response: 5.6
